# System: MDA-MB-231
# assay-overview: In vitro tumor cell proliferation, MDA-MB-231
# Type: cell-based, human
# cond: Homo sapiens, MDA-MB-231, values marked * (mark not explained); read-out: In vitro Tumor Cell Proliferation (IC50, μM) Breast MDA-MB-231
Counter-ions that a name gives are not always drawn.
measured-metric: IC50 (µM)

a = NCCCCCCCCNc1nc(N[C@H]2CC[C@H](N)CC2)nc2c1ncn2C1CCCC1 [Example 56, dihydrochloride]
b = N[C@H]1CC[C@H](Nc2nc(NCCN3CCOCC3)c3ncn(C4CCCC4)c3n2)CC1 [Example 13, trihydrochloride]
c = CCC(C)(CO)Nc1nc(N[C@H]2CC[C@H](N)CC2)nc2c1ncn2C1CCCC1 (stereo partly shown) [Example 23, dihydrochloride]
[Q] hey, can you rank those compounds up there by IC50? biggest number first please Give your ranking as a list of the labels in the requested order.
[A] c, b, a

I = N[C@H]1CC[C@H](Nc2nc(NNCC(F)(F)F)c3ncn(C4CCCC4)c3n2)CC1 [Example 52, dihydrochloride]
II = N[C@H]1CC[C@H](Nc2nc(NNCCc3ccccc3)c3ncn(C4CCCC4)c3n2)CC1 [Example 35, dihydrochloride]
III = CNc1nc(N[C@H]2CC[C@H](N)CC2)nc2c1ncn2C1CCCC1 [Example 28, dihydrochloride]
IV = N[C@H]1CC[C@H](Nc2nc(NCCc3ccccn3)c3ncn(C4CCCC4)c3n2)CC1 [Example 12, dihydrochloride]
[Q] Rank by IC50 (largest to smallest). # answer = labels listed in requested order
[A] IV, II, I, III
(IV: 6 µM, II: 4.2 µM, I: 2.7 µM, III: 1.3 µM)

###

# Test system: MDA-MB-231
# assay-overview: In vitro tumor cell proliferation, MDA-MB-231
# Assay type: cell-based, human
# cond: Homo sapiens, MDA-MB-231, values marked * (mark not explained); read-out: In vitro Tumor Cell Proliferation (IC50, μM) Breast MDA-MB-231
Where a name gives a salt, the structure may show the parent alone.
measured-metric: IC50 (µM)

1 = N[C@H]1CC[C@H](Nc2nc(NCc3nc4ccccc4[nH]3)c3ncn(C4CCCC4)c3n2)CC1 [Example 19, dihydrochloride]
2 = CC(CCCC(C)(C)O)Nc1nc(N[C@H]2CC[C@H](N)CC2)nc2c1ncn2C1CCCC1 (relative stereo) [Example 54, dihydrochloride]
3 = N[C@H]1CC[C@H](Nc2nc(NCC(F)(F)F)c3ncn(C4CCCC4)c3n2)CC1 [Example 49, dihydrochloride]
[Q] Put the items in order so that reported IC50 rises from first to last. Answer format: the labels, in the requested order.
[A] 2, 1, 3
(2: 1 µM, 1: 1.9 µM, 3: 8.6 µM)

###

# System: A549
# assay-overview: In vitro tumor cell proliferation, A549
# Type: cell-based, human
# cond: values without *; trihydrochloride; read-out: In vitro Tumor Cell Proliferation (IC50, μM) Lung A549
Structures can show the parent of a compound that is named as a salt.
measured-metric: IC50 (µM)
Report only the number, with the unit µM understood.

[Q] Which IC50 is listed for CC(C)n1cnc2c(NCc3ccccc3)nc(N[C@H]3CC[C@H](N)CC3)nc21 [Example 45, trihydrochloride] ?
[A] 1.8

###

# Test system: MDA-MB-231
# assay-overview: In vitro tumor cell proliferation, MDA-MB-231
# Type: cell-based, human
# cond: values marked * (mark not explained); dihydrochloride; read-out: In vitro Tumor Cell Proliferation (IC50, μM) Breast MDA-MB-231
Counter-ions that a name gives are not always drawn.
measured-metric: IC50 (µM)

1) NCCCCCCCCNc1nc(N[C@H]2CC[C@H](N)CC2)nc2c1ncn2C1CCCC1 [Example 56, dihydrochloride]: 3.5
2) N[C@H]1CC[C@H](Nc2nc(NCCCO)c3ncn(C4CCCC4)c3n2)CC1 [Example 53, dihydrochloride]: 8.5
3) N[C@H]1CC[C@H](Nc2nc(NCCCN3CCOCC3)c3ncn(C4CCCC4)c3n2)CC1 [Example 9, dihydrochloride]: 2.6

1 = N[C@H]1CC[C@H](Nc2nc(NCCc3ccncc3)c3ncn(C4CCCC4)c3n2)CC1 [Example 31, dihydrochloride]
2 = CCC(C)(CO)Nc1nc(N[C@H]2CC[C@H](N)CC2)nc2c1ncn2C1CCCC1 (stereo partly drawn) [Example 23, dihydrochloride]
3 = CNc1nc(N[C@H]2CC[C@H](N)CC2)nc2c1ncn2C1CCCC1 [Example 28, dihydrochloride]
4 = N[C@H]1CC[C@H](Nc2nc(NCc3cccs3)c3ncn(C4CCCC4)c3n2)CC1 [Example 17, dihydrochloride]
[Q] Place the items in sequence of falling IC50. Answer with the labels in sequence, matching the requested order.
[A] 2, 1, 4, 3
(2: 25 µM, 1: 8.6 µM, 4: 3 µM, 3: 1.6 µM)

a = N[C@H]1CC[C@H](Nc2nc(NCC(F)(F)F)c3ncn(C4CCCC4)c3n2)CC1 [Example 49, dihydrochloride]
b = NCCCCNc1nc(N[C@H]2CC[C@H](N)CC2)nc2c1ncn2C1CCCC1 [Example 5, dihydrochloride]
c = CCCCCCCCNc1nc(N[C@H]2CC[C@H](N)CC2)nc2c1ncn2C1CCCC1 [Example 20, dihydrochloride]
[Q] Put the entries in order of IC50, starting with the largest number. Quick reminder: the answer is the labels in the order asked.
[A] a, b, c

1 = N[C@H]1CC[C@H](Nc2nc(NNCCc3ccccc3)c3ncn(C4CCCC4)c3n2)CC1 [Example 35, dihydrochloride]
2 = N[C@H]1CC[C@H](Nc2nc(NCc3nc4ccccc4[nH]3)c3ncn(C4CCCC4)c3n2)CC1 [Example 19, dihydrochloride]
3 = N[C@H]1CC[C@H](Nc2nc(NNCC(F)(F)F)c3ncn(C4CCCC4)c3n2)CC1 [Example 52, dihydrochloride]
[Q] Provide the items ranked by increasing IC50. # answer = labels listed in requested order
[A] 2, 3, 1
(2: 1.7 µM, 3: 3.1 µM, 1: 5.6 µM)
